Biological target: T1, EsCas13d, nuclease-dead (Eubacterium siraeum, UniProt B0MS50, R295A;H300A;R849A;H854A)
T1 sequence: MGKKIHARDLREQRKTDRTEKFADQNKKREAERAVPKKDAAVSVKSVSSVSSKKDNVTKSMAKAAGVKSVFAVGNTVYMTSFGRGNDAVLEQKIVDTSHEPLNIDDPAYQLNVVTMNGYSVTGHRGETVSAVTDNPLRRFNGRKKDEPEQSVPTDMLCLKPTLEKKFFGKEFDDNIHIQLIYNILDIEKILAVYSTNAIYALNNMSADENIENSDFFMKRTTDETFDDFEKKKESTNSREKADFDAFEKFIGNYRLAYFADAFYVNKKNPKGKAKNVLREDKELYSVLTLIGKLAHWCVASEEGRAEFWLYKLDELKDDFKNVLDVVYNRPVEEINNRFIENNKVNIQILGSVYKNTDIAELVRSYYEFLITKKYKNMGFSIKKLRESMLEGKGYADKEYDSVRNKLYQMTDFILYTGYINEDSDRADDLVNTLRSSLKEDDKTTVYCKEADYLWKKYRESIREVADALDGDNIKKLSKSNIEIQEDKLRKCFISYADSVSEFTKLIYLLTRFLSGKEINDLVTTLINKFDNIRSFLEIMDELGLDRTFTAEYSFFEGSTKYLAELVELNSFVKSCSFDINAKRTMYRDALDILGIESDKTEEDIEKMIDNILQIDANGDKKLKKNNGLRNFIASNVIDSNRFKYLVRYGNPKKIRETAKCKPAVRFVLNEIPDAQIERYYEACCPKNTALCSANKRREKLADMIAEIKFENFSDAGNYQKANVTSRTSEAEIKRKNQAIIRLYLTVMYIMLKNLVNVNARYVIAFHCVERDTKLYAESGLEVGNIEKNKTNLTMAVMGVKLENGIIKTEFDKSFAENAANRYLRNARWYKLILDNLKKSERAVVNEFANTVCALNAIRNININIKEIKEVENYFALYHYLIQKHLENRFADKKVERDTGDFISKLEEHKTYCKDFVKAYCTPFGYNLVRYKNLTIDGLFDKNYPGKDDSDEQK
Test: crRNA (strand 1, pre-loaded); Mg2+; 40 mM Tris-HCl pH 7.5, 150 mM NaCl, 6 mM MgCl2, 1 mM DTT, 0.1% Tween-20, 0.2 mg/ml BSA; 25 C; 10 min per concentration, then washed
Settings: tags: His6-TwinStrep-SUMO cleaved; N-terminal SNAP kept (SNAP-Surface 488); label: 3' end held by stalled T7 RNA polymerase
Consider the following binders; for each one, report its pKd.
Numbers only, as −log10 of the molar value.

I'm hoping you can list pKd for every binder here, please.
1. target 2 MT 5'PFS AGU 3'PFS ACU (mixed) RNA 1: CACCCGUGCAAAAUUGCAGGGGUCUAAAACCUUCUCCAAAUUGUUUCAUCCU RNA 2: GGGAAUGGAUCCACAUCUACGAAUUCAGUAGGAUGAAACAAUUUGGAGAAGACUAGAUCGGAAGAGCACACGU
2. target 1 U10A,G17A (mixed) RNA 1: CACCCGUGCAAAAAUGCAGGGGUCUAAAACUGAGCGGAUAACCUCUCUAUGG RNA 2: GGGAAUGGAUCCACAUCUACGAAUUCGUACCAUAAAGAGGUAAUCCGCUCACCGAGAUCGGAAGAGCACACGU
3. target 1 insU 3' of 7,insA 3' of 5 (mixed) RNA 1: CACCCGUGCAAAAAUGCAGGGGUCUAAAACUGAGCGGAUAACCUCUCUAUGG RNA 2: GGGAAUGGAUCCACAUCUACGAAUUCGUACCAUAGAGAGGUUAUCUCGACUCACCGAGAUCGGAAGAGCACACGU
4. target 1 MT 5'PFS UGC 3'PFS CUG (mixed) RNA 1: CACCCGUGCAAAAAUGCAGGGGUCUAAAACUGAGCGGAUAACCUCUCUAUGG RNA 2: GGGAAUGGAUCCACAUCUACGAAUUCUGCCCAUAGAGAGGUUAUCCGCUCACUGAGAUCGGAAGAGCACACGU
5. target 1 MT 5'PFS ACC 3'PFS UUG (mixed) RNA 1: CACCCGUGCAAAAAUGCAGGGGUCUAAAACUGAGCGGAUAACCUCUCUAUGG RNA 2: GGGAAUGGAUCCACAUCUACGAAUUCACCCCAUAGAGAGGUUAUCCGCUCAUUGAGAUCGGAAGAGCACACGU
6. target 1 insU 3' of 14,insU 3' of 1 (mixed) RNA 1: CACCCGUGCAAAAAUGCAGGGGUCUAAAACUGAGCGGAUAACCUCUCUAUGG RNA 2: GGGAAUGGAUCCACAUCUACGAAUUCGUACCAUAGAGAUGGUUAUCCGCUCAUCCGAGAUCGGAAGAGCACACGU

7.66
7.26
7.76
7.88
8.13
7.32

Each binder below has a reported value. Please supply its pKd.
1. target 1 MT 5'PFS CCA 3'PFS AGU (mixed) RNA 1: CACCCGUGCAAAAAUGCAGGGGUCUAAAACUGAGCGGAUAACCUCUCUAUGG RNA 2: GGGAAUGGAUCCACAUCUACGAAUUCCCACCAUAGAGAGGUUAUCCGCUCAAGUAGAUCGGAAGAGCACACGU
2. target 1 A18U,C21U (mixed) RNA 1: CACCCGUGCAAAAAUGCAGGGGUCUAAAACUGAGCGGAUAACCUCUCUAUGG RNA 2: GGGAAUGGAUCCACAUCUACGAAUUCGUACUAUUGAGAGGUUAUCCGCUCACCGAGAUCGGAAGAGCACACGU

1. 7.85
2. 8.19
